Entry source: ChEMBL document CHEMBL1201862

Target: UniProtKB P38532
Sequence (P38532 whole entry): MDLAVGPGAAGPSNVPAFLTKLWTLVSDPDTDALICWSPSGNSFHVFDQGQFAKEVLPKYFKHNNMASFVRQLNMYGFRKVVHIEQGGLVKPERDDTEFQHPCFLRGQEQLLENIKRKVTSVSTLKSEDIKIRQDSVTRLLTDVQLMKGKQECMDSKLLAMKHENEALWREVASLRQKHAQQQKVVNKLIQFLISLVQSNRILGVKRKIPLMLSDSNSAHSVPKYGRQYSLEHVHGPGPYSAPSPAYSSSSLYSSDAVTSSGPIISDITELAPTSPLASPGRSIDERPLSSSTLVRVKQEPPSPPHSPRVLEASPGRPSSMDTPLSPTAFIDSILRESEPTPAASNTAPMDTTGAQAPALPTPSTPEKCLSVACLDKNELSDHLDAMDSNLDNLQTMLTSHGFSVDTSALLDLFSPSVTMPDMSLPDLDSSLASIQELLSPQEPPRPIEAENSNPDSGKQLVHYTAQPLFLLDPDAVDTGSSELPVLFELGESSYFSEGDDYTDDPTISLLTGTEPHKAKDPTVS
Assay: HSF1 potentiators in luciferase reporter cells, confirmation, cell-based, NIH3T3, luminescence, dose retest (AID 435004);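 note: stress induced by proteasome inhibitor MG132 added 30 min after compound; luciferase reporter driven by HSF1 response element in NIH3T3 cells; actives raise luminescence as potentiators of the MG132 stress response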
Type: functional
Calls of active or inactive are those of the source.
Outcomes: 1 = active, 0 = inactive

{"compound": "CCOC(=O)C(/C=N/c1ccc(C#N)cc1)=C(/O)OCC", "class_assignment": 0}
{"compound": "CCOc1ccc(OCCC(=O)OCC(=O)N2CCN(S(=O)(=O)c3ccc(Cl)cc3)CC2)cc1", "class_assignment": 1}
{"compound": "O=C(CCl)N1CCN2C(=O)c3ccccc3C12c1ccc(Cl)cc1 (stereo not given)", "class_assignment": 1}
{"compound": "CC1(C)CC(=O)C2=C(C1)N1C(=C(C#N)C2c2ccc(Cl)cc2)N=C(N)c2ccccc21 (stereo not given)", "class_assignment": 0}
{"compound": "CCOc1ncccc1C(=O)N(C)CC1COc2ccccc2O1 (stereo not given)", "class_assignment": 0}
{"compound": "COc1ccc(N=Nc2ccc(CO)cc2)cc1", "class_assignment": 0}
{"compound": "Cc1cc(C(=O)CN2C(=O)NC3(CCCCC3)C2=O)c(C)n1Cc1ccco1", "class_assignment": 1}
{"compound": "O=C(O)CCc1ccc(-c2ccc(Br)cc2)n1Cc1ccco1", "class_assignment": 0}

---

We begin with a simple list: items and their reported IC50.
Biological target: Sentrin-specific protease 7 (Homo sapiens);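 note: Luminescence-based dose-response confirmation of ultra-high-throughput screening hits, measuring inhibition of SENP7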
Sequence (Q9BQF6 whole entry): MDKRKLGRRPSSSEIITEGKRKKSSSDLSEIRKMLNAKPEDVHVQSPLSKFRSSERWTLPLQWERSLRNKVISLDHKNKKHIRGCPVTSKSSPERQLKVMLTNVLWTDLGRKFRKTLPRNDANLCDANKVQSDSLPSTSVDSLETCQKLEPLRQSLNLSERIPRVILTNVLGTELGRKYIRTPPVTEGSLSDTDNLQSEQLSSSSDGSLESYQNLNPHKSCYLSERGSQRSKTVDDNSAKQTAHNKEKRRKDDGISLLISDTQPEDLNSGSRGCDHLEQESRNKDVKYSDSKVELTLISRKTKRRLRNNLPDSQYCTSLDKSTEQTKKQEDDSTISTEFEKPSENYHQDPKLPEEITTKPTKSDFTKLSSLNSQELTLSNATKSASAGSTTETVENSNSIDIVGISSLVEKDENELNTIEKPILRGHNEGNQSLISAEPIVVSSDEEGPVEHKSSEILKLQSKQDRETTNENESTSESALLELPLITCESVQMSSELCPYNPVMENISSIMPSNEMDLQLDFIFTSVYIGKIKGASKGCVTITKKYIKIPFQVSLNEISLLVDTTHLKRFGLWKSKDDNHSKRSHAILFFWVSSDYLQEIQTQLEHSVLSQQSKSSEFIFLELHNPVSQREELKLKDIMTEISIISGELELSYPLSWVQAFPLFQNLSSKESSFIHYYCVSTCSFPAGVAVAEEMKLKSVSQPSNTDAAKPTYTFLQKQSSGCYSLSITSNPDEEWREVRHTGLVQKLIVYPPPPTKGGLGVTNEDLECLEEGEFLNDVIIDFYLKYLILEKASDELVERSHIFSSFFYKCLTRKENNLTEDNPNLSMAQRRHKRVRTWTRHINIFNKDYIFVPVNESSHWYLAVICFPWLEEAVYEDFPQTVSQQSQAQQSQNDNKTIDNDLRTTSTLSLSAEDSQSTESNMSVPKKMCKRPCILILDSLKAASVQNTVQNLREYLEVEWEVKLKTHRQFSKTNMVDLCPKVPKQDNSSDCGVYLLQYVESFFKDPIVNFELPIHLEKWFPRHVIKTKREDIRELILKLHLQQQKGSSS
Format: functional
Calls of active or inactive are those of the source.

{"molecule": "Cc1ccc(C(=O)c2sc3nsc(C)c3c2N)cc1", "IC50": "4.6 µM (active)"}
{"molecule": "O=c1c2cc(-c3ccccc3)sc2nc2n1CCC2", "IC50": "6.17 µM (active)"}
{"molecule": "CS(=O)(=O)Nc1ccc(C(=O)Nc2ccc3ccccc3c2)cc1", "IC50": "2.98 µM (active)"}

---

Biological target: Replicative DNA helicase DnaB (Mycobacterium tuberculosis)
Sequence (P9WMR3 1-399, added parts left off): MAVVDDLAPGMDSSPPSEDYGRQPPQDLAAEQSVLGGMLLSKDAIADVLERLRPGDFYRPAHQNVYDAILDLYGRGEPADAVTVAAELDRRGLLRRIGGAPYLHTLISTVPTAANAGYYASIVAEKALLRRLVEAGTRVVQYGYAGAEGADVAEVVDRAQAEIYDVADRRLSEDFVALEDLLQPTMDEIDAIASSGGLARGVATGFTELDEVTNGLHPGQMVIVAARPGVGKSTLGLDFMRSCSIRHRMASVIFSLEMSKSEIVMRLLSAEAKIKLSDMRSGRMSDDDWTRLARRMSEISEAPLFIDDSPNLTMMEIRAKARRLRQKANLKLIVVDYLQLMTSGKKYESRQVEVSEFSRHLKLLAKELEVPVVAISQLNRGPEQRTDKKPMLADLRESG
Test: DnaB intein splicing inhibitors, dose response, biochemical, cell-free fluorescence (AID 449749)
Format: functional
Activity calls are given as the source filed them.
Outcome codes: active, inactive

{"compound": "Oc1c2c(nn1-c1ccccc1)CCSC2", "class_assignment": "active"}
{"compound": "Cc1n[nH]c2c1C(c1ccsc1)C(C#N)=C(N)O2 (centres undefined)", "class_assignment": "active"}
{"compound": "Cc1ccc(N(NC(=O)C(O)(c2ccccc2)c2ccccc2)C(=O)CCl)cc1", "class_assignment": "active"}
{"compound": "CN1CCc2nc(SC(C(=O)O)c3ccccc3)c(C#N)c(-c3cccs3)c2C1 (centres undefined)", "class_assignment": "inactive"}
